- system-tested: NRAS Q61K (Homo sapiens, UniProt P01111+P62937, Q61K)
- Sequence (P01111 whole entry Q61K): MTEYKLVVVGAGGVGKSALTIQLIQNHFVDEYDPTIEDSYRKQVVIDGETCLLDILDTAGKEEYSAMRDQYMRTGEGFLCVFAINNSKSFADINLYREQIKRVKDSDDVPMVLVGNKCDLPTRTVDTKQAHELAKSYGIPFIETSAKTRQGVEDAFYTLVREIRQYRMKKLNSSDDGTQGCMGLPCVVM
- Sequence (P62937 whole entry): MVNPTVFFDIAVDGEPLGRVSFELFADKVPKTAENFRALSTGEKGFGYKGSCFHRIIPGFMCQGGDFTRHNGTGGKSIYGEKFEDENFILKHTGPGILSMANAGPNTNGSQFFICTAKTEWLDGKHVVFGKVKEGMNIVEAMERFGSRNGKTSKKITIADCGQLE
- assay-overview: Ras-Raf disruption / FRET / MOA assay (BRAF RBD)
- Assay type: biochemical
- run-parameters: NRAS Q61K; read-out: NRAS Q61K FRET data IC50
pIC50: −log10 of the molar value.

[
  {
    "molecule": "CCn1c(-c2cccnc2[C@H](C)OC)c2c3cc(ccc31)-c1csc(n1)C[C@H](NC(=O)[C@H](C(C)C)N(C)C(=O)N1CC(CN(C)C(=O)[C@@H]3CN3)C1)C(=O)N1CCC[C@H](N1)C(=O)OCC(C)(C)C2 (atropisomer, axis not shown) [Example 225]",
    "pIC50": "7.00 to 8.00"
  },
  {
    "molecule": "CCn1c(-c2cccnc2[C@H](C)OC)c2c3cc(ccc31)-c1cc(O)cc(c1)C[C@H](NC(=O)[C@H](C(C)C)N(C)C(=O)C1CN(S(=O)(=O)[C@H]3CN3C)C1)C(=O)N1CCC[C@H](N1)C(=O)OCC(C)(C)C2 (single isomer, unassigned) [Example 117]",
    "pIC50": "6.00 to 7.00"
  },
  {
    "molecule": "CCn1c(-c2cccnc2[C@H](C)OC)c2c3cc(ccc31)-c1csc(n1)C[C@H](NC(=O)[C@H](C(C)C)N(C)C(=O)N1CC(N(C)C(=O)[C@H]3CN3)C1)C(=O)N1CCC[C@H](N1)C(=O)OCC(C)(C)C2 [Example 218]",
    "pIC50": "7.00 to 8.00"
  },
  {
    "molecule": "CCn1c(-c2cccnc2[C@H](C)OC)c2c3cc(ccc31)-c1csc(n1)C[C@H](NC(=O)[C@H](C(C)C)N(C)C(=O)N1CCCN(C(=O)[C@@H]3CN3)CC1)C(=O)N1CCC[C@H](N1)C(=O)OCC(C)(C)C2 (atropisomer, axis not shown) [Example 223]",
    "pIC50": "7.00 to 8.00"
  },
  {
    "molecule": "CCn1c(-c2cccnc2[C@H](C)OC)c2c3cc(ccc31)-c1cc(O)cc(c1)C[C@H](NC(=O)[C@H](C(C)C)N(C)C(=O)N1CC[C@@H](N(C)C(=O)[C@H]3CN3)C1)C(=O)N1CCC[C@H](N1)C(=O)OCC(C)(C)C2 (atropisomer, axis not shown) [Example 252]",
    "pIC50": "6.00 to 7.00"
  },
  {
    "molecule": "CCn1c(-c2cccnc2[C@H](C)OC)c2c3cc(ccc31)-c1cc(O)cc(c1)C[C@H](NC(=O)[C@H](C(C)C)N(C)C(=O)[C@H]1C[C@@H]3N[C@@H]3C1)C(=O)N1CCC[C@H](N1)C(=O)OCC(C)(C)C2 (atropisomer, axis not shown) [Example 286]",
    "pIC50": "6.00 to 7.00"
  },
  {
    "molecule": "CCn1c(-c2cccnc2[C@H](C)OC)c2c3cc(ccc31)-c1cc(O)cc(c1)C[C@H](NC(=O)[C@H](C(C)C)N(C)C(=O)N(C)CCN(C)C(=O)[C@H]1CN1)C(=O)N1CCC[C@H](N1)C(=O)OCC(C)(C)C2 (atropisomer, axis not shown) [Example 204]",
    "pIC50": "6.00 to 7.00"
  },
  {
    "molecule": "CCn1c(-c2cccnc2[C@H](C)OC)c2c3cc(ccc31)-c1cc(O)cc(c1)C[C@H](NC(=O)[C@H](C(C)C)N1CC[C@]3(CCN(C(=O)[C@@H]4N[C@@H]4C4CC4)C3)C1=O)C(=O)N1CCC[C@H](N1)C(=O)OCC(C)(C)C2 [Example 305]",
    "pIC50": "6.00 to 7.00"
  }
]
